PBM binding z-score values for the sequences below.
Test system: PPARg:RXRa 30nM:10nM, anti-RXR (NR concentration 30 nM, RXRa partner concentration 10 nM)
test.details: PBM binding z-score (relative to random genomic background probes); higher = stronger binding; sequences stand for … in GC…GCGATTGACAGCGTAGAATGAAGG
No unit in the answer, please; the number alone is enough.

// below: answered sequences
{"ordered.residues": "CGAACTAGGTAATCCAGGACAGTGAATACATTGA", "PBM binding z-score": 0.536}
{"ordered.residues": "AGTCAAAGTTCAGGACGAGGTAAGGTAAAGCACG", "PBM binding z-score": 2.13}
{"ordered.residues": "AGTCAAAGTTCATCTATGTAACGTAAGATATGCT", "PBM binding z-score": 3.03}
{"ordered.residues": "CAAACCAGGTCACCGGAAGGTCAAAGTCCGCATG", "PBM binding z-score": 4.07}
{"ordered.residues": "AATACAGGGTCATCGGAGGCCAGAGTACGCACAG", "PBM binding z-score": 2.64}

Return PBM binding z-score for the following sequence: TCTCGGAGGACACGAAAGGTCAGAGGTCGACATC
3.24

Entry ATACCACGGTGATCGTGAGGTCGTTGATACTAAC needs its PBM binding z-score filled in; supply it.
-0.0631

Tell me its PBM binding z-score given GCGACTGGGGCAAAGCAGCTTACCATAAGGTTGG as the entry.
-0.326

Indicate the recorded PBM binding z-score value for this sequence: AGAACGAGGGCAGTGAGTTGATAGCACGGGTGGC
-0.624

---

Tested on: RXRa homodimer (NR concentration 180 nM)
test.details: PBM binding z-score (relative to random genomic background probes); higher = stronger binding; sequences stand for … in GC…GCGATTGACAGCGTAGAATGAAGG
Values of PBM binding z-score greater than or equal to 2 map to y; values below map to n.

{"ordered.residues": "TTAATGAGGTTATAAGATCAGGGAACGTTGCAAA", "category.label": "y"}
{"ordered.residues": "CAAACTAGGTCAAGAGGTCAACGTCCGCTTCCCG", "category.label": "y"}
{"ordered.residues": "CCTTACGGGTCAACGTTATAGCACGGGTGGTACG", "category.label": "y"}
{"ordered.residues": "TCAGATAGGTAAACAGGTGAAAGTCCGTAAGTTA", "category.label": "n"}
{"ordered.residues": "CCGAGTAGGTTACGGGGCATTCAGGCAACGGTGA", "category.label": "n"}

Dear colleague, could you confirm whether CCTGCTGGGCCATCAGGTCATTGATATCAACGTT has PBM binding z-score at or above 2?
n

Confirm if PBM binding z-score reported for the sequence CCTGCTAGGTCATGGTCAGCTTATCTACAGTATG is 2 or above.
y

---

Tested on: PPARg DBDmut:RXRa IVT, anti-PPARg (DBD mutation: PPARg1 K132A/R137A, NR concentration 270 nM, RXRa partner concentration 90 nM)
test.details: PBM binding z-score (relative to random genomic background probes); higher = stronger binding; sequences stand for … in GC…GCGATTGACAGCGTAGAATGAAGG
Documented PBM binding z-score across a set of sequences
API note: the answer field is a bare number with no unit suffix.

Below are worked cases with known answers.
{"ordered.residues": "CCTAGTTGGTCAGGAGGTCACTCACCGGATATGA", "PBM binding z-score": 0.254}
{"ordered.residues": "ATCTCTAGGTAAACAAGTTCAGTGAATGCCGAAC", "PBM binding z-score": 1.52}
{"ordered.residues": "ATCTCAAGGTAAAAGTTCAGTGAATCCCGAGGAT", "PBM binding z-score": 0.958}
{"ordered.residues": "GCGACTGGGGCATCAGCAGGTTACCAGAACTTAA", "PBM binding z-score": -0.703}
{"ordered.residues": "ATTTCTAGGTAACCAAGTTCAGTGAATGCCGAAC", "PBM binding z-score": 2.81}
{"ordered.residues": "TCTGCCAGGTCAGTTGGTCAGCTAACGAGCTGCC", "PBM binding z-score": -0.28}

Complete the entry with PBM binding z-score for GGAACGAGGGCATTCGAGGTGATAGCATGGCGAT
0.0817

Given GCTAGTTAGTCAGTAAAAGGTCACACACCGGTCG , respond with its PBM binding z-score.
0.12

Write down PBM binding z-score measured for item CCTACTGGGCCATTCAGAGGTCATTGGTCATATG
-0.0478

Dear colleague, please send me the reported PBM binding z-score for ATATGTTGGTTAAGGGTCATTCAGGTTGGTTCGC when you can.
1.51

Supply reported PBM binding z-score belonging to this sequence: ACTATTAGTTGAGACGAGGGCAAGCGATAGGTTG
0.712

Give the measured PBM binding z-score for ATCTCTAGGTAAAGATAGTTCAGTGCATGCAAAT
1.11

Tell me measured PBM binding z-score for TCTCGTAGATCAACAGGAGGTTAAGAAAGATCGA please.
0.397

Quote PBM binding z-score reported for ATTACAGGGTCACTAGGCCAGAGTAGGTACGAAT please.
2.92

In one line, give reported PBM binding z-score of the entry TAAACAGGGTCAAAGGCCAGAGTACGAATGTCGA .
2.69

Identify measured PBM binding z-score corresponding to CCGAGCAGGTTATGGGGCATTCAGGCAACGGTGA
-0.884

In one line, give reported PBM binding z-score of the entry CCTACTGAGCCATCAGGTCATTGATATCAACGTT .
0.489

Give recorded PBM binding z-score. ATCTCTAGGTAGCAAGTTCAGTGAAAGAGAGGAC
0.0162

Please list PBM binding z-score recorded for the sequence GCTATTAGTTGAAAGGGCAACCGGATGATTCTCG
0.0968

---

Tested on: THRa homodimer (NR concentration 90 nM)
test.details: PBM binding z-score (relative to random genomic background probes); higher = stronger binding; sequences stand for … in GC…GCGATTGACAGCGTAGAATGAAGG
property.measured: PBM binding z-score
I only need the number, thanks.

{"ordered.residues": "CCTAGTTGGTCAGGAGCTCACACACCGGATATGA", "test.target": "THRa homodimer (NR concentration 90 nM)", "property.measured": "PBM binding z-score", "observed": -0.103}
{"ordered.residues": "TAGCCTAGGACATTCAGGGGCCAGTATAGAAAGC", "test.target": "THRa homodimer (NR concentration 90 nM)", "property.measured": "PBM binding z-score", "observed": -0.132}
{"ordered.residues": "GCATATAGGTTATACAAGGTGAAAGTCCGATTGT", "test.target": "THRa homodimer (NR concentration 90 nM)", "property.measured": "PBM binding z-score", "observed": 1.27}
{"ordered.residues": "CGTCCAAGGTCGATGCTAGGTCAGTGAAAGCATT", "test.target": "THRa homodimer (NR concentration 90 nM)", "property.measured": "PBM binding z-score", "observed": 1.45}
{"ordered.residues": "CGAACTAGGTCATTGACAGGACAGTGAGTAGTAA", "test.target": "THRa homodimer (NR concentration 90 nM)", "property.measured": "PBM binding z-score", "observed": 0.505}

Give recorded PBM binding z-score. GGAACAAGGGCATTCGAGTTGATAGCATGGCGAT
-0.205

---

Test system: PPARg:RXRa 30nM:10nM, anti-RXR (NR concentration 30 nM, RXRa partner concentration 10 nM)
test.details: PBM binding z-score (relative to random genomic background probes); higher = stronger binding; sequences stand for … in GC…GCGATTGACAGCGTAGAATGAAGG
We use 0.1 as the dividing line for PBM binding z-score: on or above the line is Condition met, below is Condition not met.

{"ordered.residues": "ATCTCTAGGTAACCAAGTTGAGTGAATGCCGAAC", "test.target": "PPARg:RXRa 30nM:10nM, anti-RXR (NR concentration 30 nM, RXRa partner concentration 10 nM)", "category.label": "Condition not met"}

Is it the case that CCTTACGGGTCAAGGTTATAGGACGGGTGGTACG has PBM binding z-score reaching or exceeding 0.1?
Condition met

Reported PBM binding z-score reaches at least 0.1 for TCTAGCTGGCCAGAGGGTCACTCAAGAGGTACGG ?
Condition met

Answer whether PBM binding z-score of AGAACGAGGGCAATGAGTTGTTAGCACGGGTGGC is greater than or equal to 0.1.
Condition not met

Is PBM binding z-score for GAAGACAGGTGAAACGCAGGTAACTCAGGGTGGC at or above 0.1?
Condition not met

Evaluate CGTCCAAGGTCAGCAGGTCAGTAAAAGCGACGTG : PBM binding z-score at minimum 0.1?
Condition met
